Reported values of melting point for individual entries

Here is how some compounds turned out for melting point.
compound	value.observed
COc1cc2c(cc1Br)CC(SC)=NN=C2c1ccc([N+](=O)[O-])cc1	225 to 227 °C
CC(C)[C@H](NC(=O)N(C)Cc1cccnc1)C(=O)N[C@@H](Cc1ccccc1)C[C@H](O)[C@H](Cc1ccccc1)NC(=O)[C@@H](NC(=O)N(C)Cc1cccnc1)C(C)C	193 to 196 °C
CC(C)(C)OC(=O)NCCSc1cccc2nccn12	105 to 107 °C
CCCC1=C(C#N)C(c2ccccc2Cl)c2cn(C(=O)Nc3ccccc3)nc2N1 (stereo unspecified)	167 to 171 °C
CNC(=O)CCCCCCCCn1ccnc1	64 to 66 °C

Enquiry: Quickly give me recorded melting point for O=C1Nc2ccc(Cl)cc2C1(c1ccccc1)c1ccccc1
Return: 281 °C

Enquiry: Fill in melting point for record Cn1cncc1C(C)(c1ccc(Cl)cc1)c1ccc2c(c1)c(-c1cccc(Cl)c1)cc(=O)n2C (stereo unspecified)
Return: 204 °C

Enquiry: Using the record for CCCCn1c(=O)n(C2OC(CO)C(O)C2O)c2nc(N)[nH]c(=O)c21 (stereo unspecified) , state its measured melting point.
Return: > 230 °C
